Values from patent US10414728B2

Recorded measurements of IC50, one per entry
# Tested On: human NaV 1.7 (Homo sapiens, UniProt Q15858)
# Construct: expressed in transfected cells; host or cells: CHO
# Protocol Text: Electrophysiology, IonWorks Barracuda, NaV channel block in CHO cells
# Format: cell-based
# Condition Parameters: IC50 TP1 (tonic), Nav1.7, CHO cells, 5 min exposure, ambient temperature
Counter-ions that a name gives are not always drawn.

- Compound: "COC(=O)[C@@H](c1ccc(-c2ccccc2)cc1)[C@H]1C=CCCN1 [EXAMPLE 1D, hydrochloride]"
  IC50: "> 30 µM"
- Compound: "COC(=O)[C@H](c1ccc(-c2ccccc2)cc1)[C@@H]1C=CCCN1.Cl [EXAMPLE 1C, hydrochloride]"
  IC50: "> 30 µM"
- Compound: "COC(=O)[C@H](c1ccc(-c2ccccc2)cc1)[C@@H]1C=CCCN1 (racemic)"
  IC50: "> 30 µM"

----------
# Tested On: human NaV 1.7 (Homo sapiens, UniProt Q15858)
# Construct: expressed in transfected cells; host or cells: CHO
# Protocol Text: Electrophysiology, IonWorks Barracuda, NaV channel block in CHO cells
# Type: cell-based
# Condition Parameters: Nav1.7, CHO cells, 5 min exposure, ambient temperature; read-out: IC50 TP2 (inactivated state)
pIC50: −log10 of the molar value.
Measure Name: pIC50

- Molecule: "CCN(CC)CC(=O)Nc1c(C)cccc1C [Lidocaine, reference compound]"
  Numeric Value: 3.81

----------
Below is a list of entries, each paired with its recorded IC50 value.
# Tested On: human NaV 1.1 (Homo sapiens)
# Construct: expressed in transfected cells; host or cells: CHO
# Protocol Text: Electrophysiology, IonWorks Barracuda, NaV channel block in CHO cells
# Format: cell-based
# Condition Parameters: IC50 TP2 (inactivated state), Nav1.1, CHO cells, 5 min exposure, ambient temperature
Counter-ions that a name gives are not always drawn.
Measure Name: IC50 (nM)

- Molecule: "COC(=O)[C@H](c1ccc(-c2ccccc2)cc1)[C@@H]1C=CCCN1 (racemic) [EXAMPLE 1E]"
  Measure Name: "IC50"
  Numeric Value: 1500
- Molecule: "COC(=O)[C@H](c1ccc(-c2ccccc2)cc1)[C@@H]1C=CCCN1.Cl [EXAMPLE 1C, hydrochloride]"
  Measure Name: "IC50"
  Numeric Value: 2100
- Molecule: "COC(=O)[C@@H](c1ccc(-c2ccccc2)cc1)[C@H]1C=CCCN1 [EXAMPLE 1D, hydrochloride]"
  Measure Name: "IC50"
  Numeric Value: 2200

----------
# Tested On: human NaV 1.5 (Homo sapiens, UniProt Q14524)
# Protocol Text: Electrophysiology, IonWorks Barracuda, NaV channel block in CHO cells
# Condition Parameters: IC50 TP1 (tonic), Nav1.5, CHO cells, 5 min exposure, ambient temperature
# Procedure: Effects on Human NaV 1.1, NaV 1.2, NaV1.3, NaV 1.4, NaV 1.5, NaV 1.6, NaV 1.7 and NaV 1.8/β3 Sodium Channels Expressed in Mammalian Cells CHO cells were stably transfected with human ion channel cDNAs. Stable transfectants were selected by expression with the antibiotic-resistance gene(s) incorporated into the expression plasmid(s). Selection pressure was maintained by including selection antibiotics in the culture medium. […] Inhibition of NaV channels was measured using a stimulus voltage pattern. […]
pIC50: −log10 of the molar value. Where a name gives a salt, the structure may show the parent alone.
Measured pIC50 accompanies every entry in the list below.
Measure Name: pIC50

- Molecule: "COC(=O)[C@@H](c1ccc(-c2ccccc2)cc1)[C@H]1C=CCCN1 [EXAMPLE 1D, hydrochloride]"
  Measure Name: "pIC50"
  Result: "< 4.52"
- Molecule: "COC(=O)[C@H](c1ccc(-c2ccccc2)cc1)[C@@H]1C=CCCN1 (racemic) [EXAMPLE 1E]"
  Measure Name: "pIC50"
  Result: "< 4.52"
- Molecule: "COC(=O)[C@H](c1ccc(-c2ccccc2)cc1)[C@@H]1C=CCCN1.Cl [EXAMPLE 1C, hydrochloride]"
  Measure Name: "pIC50"
  Result: "< 4.52"

----------
# Tested On: human NaV 1.8/β3 (Homo sapiens)
# Construct: expressed in transfected cells; host or cells: CHO
# Protocol Text: Electrophysiology, IonWorks Barracuda, NaV channel block in CHO cells
# Format: cell-based
# Condition Parameters: Nav1.8, CHO cells, 5 min exposure, ambient temperature; read-out: IC50 TP1 (tonic)

- Molecule: "CCN(CC)CC(=O)Nc1c(C)cccc1C [Lidocaine, reference compound]"
  Units Text: "µM"
  IC50: 280

----------
# Tested On: human NaV 1.4 (Homo sapiens, UniProt P35499)
# Construct: expressed in transfected cells; host or cells: CHO
# Protocol Text: Electrophysiology, IonWorks Barracuda, NaV channel block in CHO cells
# Assay type: cell-based
# Condition Parameters: Nav1.4, CHO cells, 5 min exposure, ambient temperature; read-out: IC50 TP1 (tonic)
pIC50: −log10 of the molar value.

- Compound: "CCN(CC)CC(=O)Nc1c(C)cccc1C [Lidocaine, reference compound]"
  pIC50: 3.41

----------
In this section, each of the compounds is paired with its reported pIC50.
# Tested On: human NaV 1.7 (Homo sapiens, UniProt Q15858)
# Construct: expressed in transfected cells; host or cells: CHO
# Protocol Text: Electrophysiology, IonWorks Barracuda, NaV channel block in CHO cells
# Type: cell-based
# Condition Parameters: IC50 TP2 (inactivated state), Nav1.7, CHO cells, 5 min exposure, ambient temperature
# Description: Effects on Human NaV 1.1, NaV 1.2, NaV1.3, NaV 1.4, NaV 1.5, NaV 1.6, NaV 1.7 and NaV 1.8/β3 Sodium Channels Expressed in Mammalian Cells CHO cells were stably transfected with human ion channel cDNAs. Stable transfectants were selected by expression with the antibiotic-resistance gene(s) incorporated into the expression plasmid(s). Selection pressure was maintained by including selection antibiotics in the culture medium. […] Inhibition of NaV channels was measured using a stimulus voltage pattern. […]
pIC50: −log10 of the molar value. Structures can show the parent of a compound that is named as a salt.
Measure Name: pIC50

- Compound: "COC(=O)[C@@H](c1ccc(-c2ccccc2)cc1)[C@H]1C=CCCN1 [EXAMPLE 1D, hydrochloride]"
  Numeric Value: 5.70
- Compound: "COC(=O)[C@H](c1ccc(-c2ccccc2)cc1)[C@@H]1C=CCCN1 (racemic) [EXAMPLE 1E]"
  Numeric Value: 5.89
- Compound: "COC(=O)[C@H](c1ccc(-c2ccccc2)cc1)[C@@H]1C=CCCN1.Cl [EXAMPLE 1C, hydrochloride]"
  Numeric Value: 5.60

----------
Attribute: IC50
# Tested On: human NaV 1.2 (Homo sapiens)
# Construct: expressed in transfected cells; host or cells: CHO
# Sequence (Q99250 whole entry): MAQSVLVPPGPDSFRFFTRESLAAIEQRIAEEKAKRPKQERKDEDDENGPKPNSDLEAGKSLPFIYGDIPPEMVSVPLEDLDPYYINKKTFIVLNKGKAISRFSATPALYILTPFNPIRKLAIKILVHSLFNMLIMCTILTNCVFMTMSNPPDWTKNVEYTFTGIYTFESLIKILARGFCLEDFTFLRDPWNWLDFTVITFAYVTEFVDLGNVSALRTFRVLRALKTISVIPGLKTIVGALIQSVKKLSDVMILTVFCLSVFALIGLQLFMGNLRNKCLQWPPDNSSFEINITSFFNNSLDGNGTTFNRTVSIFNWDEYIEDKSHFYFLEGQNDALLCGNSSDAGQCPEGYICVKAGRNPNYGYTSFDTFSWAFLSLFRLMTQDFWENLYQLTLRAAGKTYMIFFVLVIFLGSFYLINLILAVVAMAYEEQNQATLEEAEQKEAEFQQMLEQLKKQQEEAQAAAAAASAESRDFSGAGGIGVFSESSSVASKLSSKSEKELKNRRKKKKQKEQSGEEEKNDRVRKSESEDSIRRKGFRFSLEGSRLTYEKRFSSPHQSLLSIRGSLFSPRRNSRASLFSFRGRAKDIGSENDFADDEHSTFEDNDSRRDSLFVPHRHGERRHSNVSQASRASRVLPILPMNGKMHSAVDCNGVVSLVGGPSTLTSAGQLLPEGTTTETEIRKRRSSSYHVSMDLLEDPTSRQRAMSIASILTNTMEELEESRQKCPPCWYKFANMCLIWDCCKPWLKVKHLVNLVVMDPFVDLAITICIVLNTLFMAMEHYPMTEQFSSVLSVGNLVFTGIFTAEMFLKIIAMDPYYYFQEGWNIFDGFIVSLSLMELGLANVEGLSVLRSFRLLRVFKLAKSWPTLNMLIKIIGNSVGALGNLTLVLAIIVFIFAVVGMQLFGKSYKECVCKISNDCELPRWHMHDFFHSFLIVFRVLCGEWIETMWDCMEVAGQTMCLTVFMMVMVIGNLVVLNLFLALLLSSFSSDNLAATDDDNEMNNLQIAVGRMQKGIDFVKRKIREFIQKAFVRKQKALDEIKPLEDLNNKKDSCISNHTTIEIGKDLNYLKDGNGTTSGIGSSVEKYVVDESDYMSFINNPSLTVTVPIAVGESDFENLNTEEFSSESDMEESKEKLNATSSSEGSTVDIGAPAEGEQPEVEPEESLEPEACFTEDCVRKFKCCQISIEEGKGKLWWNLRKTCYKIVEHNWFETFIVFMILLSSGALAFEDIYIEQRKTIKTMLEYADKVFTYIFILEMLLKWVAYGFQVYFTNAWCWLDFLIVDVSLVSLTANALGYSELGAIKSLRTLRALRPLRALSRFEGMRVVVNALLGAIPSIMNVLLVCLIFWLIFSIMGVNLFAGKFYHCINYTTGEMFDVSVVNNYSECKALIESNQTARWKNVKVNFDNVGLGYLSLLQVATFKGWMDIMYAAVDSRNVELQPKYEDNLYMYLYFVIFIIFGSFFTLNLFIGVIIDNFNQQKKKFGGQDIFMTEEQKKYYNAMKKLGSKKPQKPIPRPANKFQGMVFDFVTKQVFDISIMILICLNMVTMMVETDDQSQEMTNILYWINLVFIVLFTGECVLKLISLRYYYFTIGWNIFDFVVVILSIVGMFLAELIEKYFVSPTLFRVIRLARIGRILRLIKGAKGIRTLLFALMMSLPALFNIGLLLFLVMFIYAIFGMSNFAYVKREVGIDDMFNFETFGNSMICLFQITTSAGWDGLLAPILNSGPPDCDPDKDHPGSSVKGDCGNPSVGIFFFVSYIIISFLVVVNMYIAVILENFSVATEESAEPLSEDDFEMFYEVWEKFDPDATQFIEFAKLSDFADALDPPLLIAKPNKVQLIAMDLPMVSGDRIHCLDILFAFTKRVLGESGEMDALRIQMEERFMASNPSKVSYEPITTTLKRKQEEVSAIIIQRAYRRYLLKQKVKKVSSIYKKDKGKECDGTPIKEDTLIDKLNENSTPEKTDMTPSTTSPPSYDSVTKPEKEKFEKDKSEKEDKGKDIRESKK
# Protocol Text: Electrophysiology, IonWorks Barracuda, NaV channel block in CHO cells
# Assay type: cell-based
# Condition Parameters: IC50 TP2 (inactivated state), Nav1.2, CHO cells, 5 min exposure, ambient temperature
Where a name gives a salt, the structure may show the parent alone.
Measure Name: IC50

- Compound: "COC(=O)[C@H](c1ccc(-c2ccccc2)cc1)[C@@H]1C=CCCN1.Cl [EXAMPLE 1C, hydrochloride]"
  Tested On: "human NaV 1.2 (Homo sapiens)"
  Measure Name: "IC50"
  Result: "3100 nM"
- Compound: "COC(=O)[C@@H](c1ccc(-c2ccccc2)cc1)[C@H]1C=CCCN1 [EXAMPLE 1D, hydrochloride]"
  Tested On: "human NaV 1.2 (Homo sapiens)"
  Measure Name: "IC50"
  Result: "2100 nM"
- Compound: "COC(=O)[C@H](c1ccc(-c2ccccc2)cc1)[C@@H]1C=CCCN1 (racemic) [EXAMPLE 1E]"
  Tested On: "human NaV 1.2 (Homo sapiens)"
  Measure Name: "IC50"
  Result: "1500 nM"

----------
# Tested On: human NaV1.3 (Homo sapiens, UniProt Q9NY46)
# Construct: expressed in transfected cells; host or cells: CHO
# Sequence (Q9NY46 whole entry): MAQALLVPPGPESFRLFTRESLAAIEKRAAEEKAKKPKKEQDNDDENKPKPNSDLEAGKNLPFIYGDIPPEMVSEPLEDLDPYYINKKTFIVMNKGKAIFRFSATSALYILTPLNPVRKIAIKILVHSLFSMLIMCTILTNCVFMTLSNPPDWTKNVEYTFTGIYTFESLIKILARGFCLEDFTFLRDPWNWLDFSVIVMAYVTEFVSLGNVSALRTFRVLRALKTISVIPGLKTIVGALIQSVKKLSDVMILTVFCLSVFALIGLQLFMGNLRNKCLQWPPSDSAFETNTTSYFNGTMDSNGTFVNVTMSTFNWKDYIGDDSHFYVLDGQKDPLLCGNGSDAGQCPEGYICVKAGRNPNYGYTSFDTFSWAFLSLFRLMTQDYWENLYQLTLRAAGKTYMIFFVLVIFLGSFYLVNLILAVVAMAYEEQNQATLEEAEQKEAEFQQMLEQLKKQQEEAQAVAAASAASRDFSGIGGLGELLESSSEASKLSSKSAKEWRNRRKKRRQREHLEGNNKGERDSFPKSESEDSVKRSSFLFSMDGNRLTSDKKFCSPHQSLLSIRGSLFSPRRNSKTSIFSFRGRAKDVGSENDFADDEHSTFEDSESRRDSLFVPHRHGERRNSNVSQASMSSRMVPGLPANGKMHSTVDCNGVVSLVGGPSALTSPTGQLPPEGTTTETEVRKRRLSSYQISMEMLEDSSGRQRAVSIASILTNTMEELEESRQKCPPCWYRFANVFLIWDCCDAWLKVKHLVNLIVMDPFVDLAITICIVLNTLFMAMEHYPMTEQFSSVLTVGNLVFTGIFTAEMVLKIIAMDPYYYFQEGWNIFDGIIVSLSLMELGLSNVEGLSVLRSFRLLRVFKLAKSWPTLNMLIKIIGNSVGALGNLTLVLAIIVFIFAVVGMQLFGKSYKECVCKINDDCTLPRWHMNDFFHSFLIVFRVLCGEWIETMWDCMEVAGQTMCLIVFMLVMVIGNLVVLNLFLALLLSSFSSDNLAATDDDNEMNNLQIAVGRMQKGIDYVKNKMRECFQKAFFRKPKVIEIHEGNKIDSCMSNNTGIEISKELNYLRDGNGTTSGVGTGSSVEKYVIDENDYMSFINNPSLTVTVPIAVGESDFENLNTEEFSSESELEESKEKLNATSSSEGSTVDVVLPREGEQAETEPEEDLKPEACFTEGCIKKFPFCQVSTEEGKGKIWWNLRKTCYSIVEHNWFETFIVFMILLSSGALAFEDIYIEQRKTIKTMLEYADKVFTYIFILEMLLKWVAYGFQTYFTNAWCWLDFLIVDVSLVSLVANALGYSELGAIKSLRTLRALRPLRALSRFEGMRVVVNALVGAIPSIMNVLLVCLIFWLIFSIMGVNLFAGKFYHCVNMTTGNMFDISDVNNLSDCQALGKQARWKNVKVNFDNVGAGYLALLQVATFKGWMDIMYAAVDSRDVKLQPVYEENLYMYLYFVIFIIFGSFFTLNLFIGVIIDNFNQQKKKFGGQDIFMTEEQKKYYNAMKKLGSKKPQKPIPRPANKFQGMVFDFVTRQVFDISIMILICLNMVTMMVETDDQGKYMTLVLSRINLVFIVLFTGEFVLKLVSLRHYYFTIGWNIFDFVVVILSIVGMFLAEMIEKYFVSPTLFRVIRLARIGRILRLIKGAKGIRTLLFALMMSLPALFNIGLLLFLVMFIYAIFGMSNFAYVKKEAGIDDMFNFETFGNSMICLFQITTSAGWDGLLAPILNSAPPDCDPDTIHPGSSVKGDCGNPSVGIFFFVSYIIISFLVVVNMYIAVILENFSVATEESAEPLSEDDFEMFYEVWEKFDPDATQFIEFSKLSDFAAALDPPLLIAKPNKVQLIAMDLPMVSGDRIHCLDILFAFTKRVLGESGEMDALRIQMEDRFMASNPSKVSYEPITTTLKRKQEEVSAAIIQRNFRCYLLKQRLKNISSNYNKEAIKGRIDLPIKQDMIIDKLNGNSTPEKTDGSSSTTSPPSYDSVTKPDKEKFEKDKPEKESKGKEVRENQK
# Protocol Text: Electrophysiology, IonWorks Barracuda, NaV channel block in CHO cells
# Type: cell-based
# Condition Parameters: IC50 TP2 (inactivated state), Nav1.3, CHO cells, 5 min exposure, ambient temperature
Where a name gives a salt, the structure may show the parent alone.

- Compound: "COC(=O)[C@H](c1ccc(-c2ccccc2)cc1)[C@@H]1C=CCCN1 (racemic) [EXAMPLE 1E]"
  Tested On: "human NaV1.3 (Homo sapiens, UniProt Q9NY46)"
  IC50: "1300 nM"
- Compound: "COC(=O)[C@H](c1ccc(-c2ccccc2)cc1)[C@@H]1C=CCCN1.Cl [EXAMPLE 1C, hydrochloride]"
  Tested On: "human NaV1.3 (Homo sapiens, UniProt Q9NY46)"
  IC50: "2200 nM"
- Compound: "COC(=O)[C@@H](c1ccc(-c2ccccc2)cc1)[C@H]1C=CCCN1 [EXAMPLE 1D, hydrochloride]"
  Tested On: "human NaV1.3 (Homo sapiens, UniProt Q9NY46)"
  IC50: "2000 nM"
